Tested on: genotype 4a stable HCV replicon (ED43 strain) in Huh-7-derived cells
Experiment: Stable subgenomic HCV replicon EC50, genotype 4a (Renilla luciferase)
Type: cell-based
Details: Hepatitis C virus, 72 h, read-out: EC50 4A RLUC
Assay endpoint: pEC50
The scale used: pEC50 is minus the common logarithm of the concentration in molar units.

Field: example entries. Status: answers known.
[
  {
    "Molecule": "CC[C@@H]1[C@@H]2CN(C(=O)[C@H](C(C)(C)C)NC(=O)O[C@@H]3C[C@H]3CC/C=C/C(F)(F)C3Nc4ccc(C#N)cc4N=C3O2)[C@@H]1C(=O)N[C@]1(C(=O)NS(=O)(=O)C2(C)CC2)C[C@H]1C(F)F (some centres unmarked) [Example 78]",
    "Assay endpoint": "pEC50",
    "Result number": 6.65
  },
  {
    "Molecule": "COc1ccc2nc3c(nc2c1)O[C@H]1CN(C(=O)[C@H](C(C)(C)C)NC(=O)O[C@@H]2C[C@H]2CCCCC3F)[C@H](C(=O)N[C@]2(C(=O)NS(=O)(=O)C3(C)CC3)C[C@H]2C(F)F)[C@@H]1C (some centres unmarked) [Example 47]",
    "Assay endpoint": "pEC50",
    "Result number": 8.38
  },
  {
    "Molecule": "CC[C@@H]1[C@@H]2CN(C(=O)[C@H](C(C)(C)C)NC(=O)O[C@@H]3C[C@H]3CC/C=C/C(F)(F)c3nc4ccc(OC)cc4nc3O2)[C@@H]1C(=O)N[C@]1(C(=O)NS(=O)(=O)C2(C)CC2)C[C@H]1C(F)F [Example 89]",
    "Assay endpoint": "pEC50",
    "Result number": 8.34
  },
  {
    "Molecule": "C[C@@H]1[C@@H]2CN(C(=O)[C@H](C(C)(C)C)NC(=O)O[C@@H]3C[C@H]3CCCCC(F)(F)c3nc4ccc(Cl)cc4nc3O2)[C@@H]1C(=O)N[C@]1(C(=O)NS(=O)(=O)C2(C)CC2)C[C@H]1C(F)F [Example 88]",
    "Assay endpoint": "pEC50",
    "Result number": 8.39
  }
]

Moving on to another molecule below.
Request: Item CC[C@@H]1[C@@H]2CN(C(=O)[C@H](C(C)(C)C)NC(=O)O[C@]3(C(F)(F)F)CCC[C@H]3CCCCCc3nc4ccc(OC)cc4nc3O2)[C@@H]1C(=O)N[C@]1(C(=O)NS(=O)(=O)C2CC2)C[C@H]1C(F)F [Example 11] has what recorded pEC50?
Result: 7.72
